Target: PARP1 GST (Homo sapiens (Human), UniProt P09874)
Sequence (P09874 whole entry): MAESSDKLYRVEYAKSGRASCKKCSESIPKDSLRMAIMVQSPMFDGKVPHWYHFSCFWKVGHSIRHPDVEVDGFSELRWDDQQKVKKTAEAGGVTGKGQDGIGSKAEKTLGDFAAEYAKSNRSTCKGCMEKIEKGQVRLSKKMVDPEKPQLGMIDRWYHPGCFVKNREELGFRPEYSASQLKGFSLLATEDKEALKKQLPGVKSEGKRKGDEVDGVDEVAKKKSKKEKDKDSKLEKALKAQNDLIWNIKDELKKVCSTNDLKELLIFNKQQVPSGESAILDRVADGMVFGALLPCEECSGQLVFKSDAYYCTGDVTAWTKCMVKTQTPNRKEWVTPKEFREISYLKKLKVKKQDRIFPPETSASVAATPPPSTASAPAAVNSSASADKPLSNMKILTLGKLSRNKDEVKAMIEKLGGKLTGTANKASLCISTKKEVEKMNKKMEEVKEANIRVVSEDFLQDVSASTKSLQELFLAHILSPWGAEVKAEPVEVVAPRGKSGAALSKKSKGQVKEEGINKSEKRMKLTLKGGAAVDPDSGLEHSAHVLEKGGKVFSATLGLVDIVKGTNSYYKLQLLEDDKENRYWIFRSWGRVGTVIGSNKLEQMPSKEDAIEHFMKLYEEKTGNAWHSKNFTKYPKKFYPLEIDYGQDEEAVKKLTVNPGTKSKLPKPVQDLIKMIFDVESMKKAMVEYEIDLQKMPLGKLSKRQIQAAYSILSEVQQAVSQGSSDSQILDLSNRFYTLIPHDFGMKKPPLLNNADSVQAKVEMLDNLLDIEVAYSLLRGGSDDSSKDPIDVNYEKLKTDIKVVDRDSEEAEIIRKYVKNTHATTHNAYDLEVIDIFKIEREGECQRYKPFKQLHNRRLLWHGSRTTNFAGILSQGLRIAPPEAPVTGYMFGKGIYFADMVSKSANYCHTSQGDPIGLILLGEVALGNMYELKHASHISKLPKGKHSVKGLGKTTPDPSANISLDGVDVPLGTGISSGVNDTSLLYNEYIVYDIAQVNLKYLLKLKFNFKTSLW
pIC50: −log10 of the molar value.
Think of 6 as a floor: if pIC50 stands on it or above, it is y; beneath it, n.

QUERY SMILES	ASSIGNED CATEGORY
O=c1[nH]cc([C@H]2C[C@@H](C(=O)N3CCN(c4ncc(C(F)(F)F)cn4)CC3)C2)cc1C(F)(F)F	y
C[C@H]1CN(c2ncc(C(C)(C)O)cn2)CCN1C(=O)[C@H]1C[C@@H](c2c[nH]c(=O)c(C(F)(F)F)c2)C1	y
C[C@H]1CN(C(=O)[C@H]2C[C@@H](c3c[nH]c(=O)c(C(F)(F)F)c3)C2)CCN1c1ncc(C(C)(C)O)cn1	n
C[C@@H]1CN(C(=O)[C@H]2C[C@@H](c3c[nH]c(=O)c(C(F)(F)F)c3)C2)C[C@H](C)N1c1ncc(C(C)(C)O)cn1	n
C[C@@H]1CN(C(=O)[C@H]2C[C@@H](Cc3c[nH]c(=O)c(C(F)(F)F)c3)C2)CCN1c1ncc(C(F)(F)F)cn1	y

====

Target: TIPARP GST-(TEV) (Homo sapiens (Human))
Sequence (Q7Z3E1 441-657): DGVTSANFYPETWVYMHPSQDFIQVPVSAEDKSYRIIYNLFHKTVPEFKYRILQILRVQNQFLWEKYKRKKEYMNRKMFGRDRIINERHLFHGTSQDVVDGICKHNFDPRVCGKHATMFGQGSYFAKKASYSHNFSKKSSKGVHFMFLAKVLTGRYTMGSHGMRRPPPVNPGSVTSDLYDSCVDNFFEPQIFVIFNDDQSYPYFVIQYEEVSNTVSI
Test: TR-FRET binding assay, TIPARP
Settings: ratio of PARP1 GST IC50 to TIPARP GST-(TEV) IC50
Think of 100 as a floor: if PARP1/TIPARP IC50 Ratio stands on it or above, it is Yes; beneath it, No.

QUERY SMILES	ASSIGNED CATEGORY
C[C@@H]1CN(C(=O)[C@H]2C[C@@H](c3c[nH]c(=O)c(C(F)(F)F)c3)C2)C[C@H](C)N1c1ncc(C(C)(C)O)cn1	Yes
C[C@@H]1CN(c2ncc(C(F)(F)F)cn2)CCN1C(=O)[C@H]1C[C@H](c2c[nH]c(=O)c(C(F)(F)F)c2)C1	No
C[C@H]1CN(c2ncc(C(F)(F)F)cn2)CCN1C(=O)[C@H]1C[C@@H](Cc2c[nH]c(=O)c(C(F)(F)F)c2)C1	No
C[C@@H]1CN(C(=O)[C@H]2C[C@@H](c3c[nH]c(=O)c(C(F)(F)F)c3)C2)C[C@H](C)N1c1ncc(C(F)(F)F)cn1	Yes
C[C@@H]1CN(c2ncc(C(C)(C)O)cn2)CCN1C(=O)[C@H]1C[C@@H](Cc2c[nH]c(=O)c(C(F)(F)F)c2)C1	Yes
C[C@H]1CN(c2ncc(C(C)(C)O)cn2)CCN1C(=O)[C@H]1C[C@@H](c2c[nH]c(=O)c(C(F)(F)F)c2)C1	No
C[C@H]1CN(C(=O)[C@H]2C[C@@H](Cc3c[nH]c(=O)c(C(F)(F)F)c3)C2)CCN1c1ncc(C(C)(C)O)cn1	Yes
O=c1[nH]cc([C@H]2C[C@@H](C(=O)N3CCN(c4ncc(C(F)(F)F)cn4)CC3)C2)cc1C(F)(F)F	No
C[C@@H]1CN(C(=O)[C@H]2C[C@@H](Cc3c[nH]c(=O)c(C(F)(F)F)c3)C2)CCN1c1ncc(C(F)(F)F)cn1	Yes
C[C@@H]1CN(C(=O)[C@H]2C[C@@H](Cc3c[nH]c(=O)c(C(F)(F)F)c3)C2)CCN1c1ncc(C(C)(C)O)cn1	Yes
O=c1[nH]cc(C[C@H]2C[C@@H](C(=O)N3CCN(c4ncc(C(F)(F)F)cn4)CC3)C2)cc1C(F)(F)F	Yes
C[C@H]1CN(C(=O)[C@H]2C[C@@H](c3c[nH]c(=O)c(C(F)(F)F)c3)C2)CCN1c1ncc(C(C)(C)O)cn1	Yes
C[C@@H]1CN(c2ncc(C(F)(F)F)cn2)C[C@H](C)N1C(=O)[C@H]1C[C@@H](Cc2c[nH]c(=O)c(C(F)(F)F)c2)C1	Yes
C[C@H]1CN(c2ncc(C(F)(F)F)cn2)CCN1C(=O)[C@H]1C[C@@H](c2c[nH]c(=O)c(C(F)(F)F)c2)C1	No
C[C@H]1CN(C(=O)[C@H]2C[C@@H](Cc3c[nH]c(=O)c(C(F)(F)F)c3)C2)CCN1c1ncc(C(F)(F)F)cn1	Yes
C[C@@H]1CN(C(=O)[C@H]2C[C@@H](Cc3c[nH]c(=O)c(C(F)(F)F)c3)C2)C[C@H](C)N1c1ncc(C(F)(F)F)cn1	Yes
C[C@@H]1CN(C(=O)[C@H]2C[C@H](c3c[nH]c(=O)c(C(F)(F)F)c3)C2)C[C@H](C)N1c1ncc(C(F)(F)F)cn1	No
C[C@H]1CN(C(=O)[C@H]2C[C@@H](c3c[nH]c(=O)c(C(F)(F)F)c3)C2)CCN1c1ncc(C(F)(F)F)cn1	Yes
C[C@@H]1CN(C(=O)[C@H]2C[C@@H](Cc3c[nH]c(=O)c(C(F)(F)F)c3)C2)C[C@H](C)N1c1ncc(C(C)(C)O)cn1	Yes
CC(C)(O)c1cnc(N2CCN(C(=O)[C@H]3C[C@@H](c4c[nH]c(=O)c(C(F)(F)F)c4)C3)CC2)nc1	No
C[C@@H]1CN(c2ncc(C(F)(F)F)cn2)CCN1C(=O)[C@H]1C[C@@H](Cc2c[nH]c(=O)c(C(F)(F)F)c2)C1	Yes
C[C@H]1CN(c2ncc(C(C)(C)O)cn2)CCN1C(=O)[C@H]1C[C@@H](Cc2c[nH]c(=O)c(C(F)(F)F)c2)C1	No
